target: T1, Human FXIa protein (activated coagulation factor XI) (human, UniProt P03951 19-625); test: SPR (Biacore T200), antibody captured on Protein A chip, FXIa as analyte, 1:1 Langmuir fit
T1 construct: Bought from Enzyme Research Laboratories (HFXIa 1111a); also called factor XIa; HFXIa 1111a
# note: boundary value 0.4 nM maps to 0.0; Kd below it maps to 1.0

INSERT INTO assay_data (binder, assigned_category) VALUES
  ('antibody 3807 (antibody, V domains shown, Murine variable regions; also called murine antibody 3807; hybridoma clone 3807) VH: EVQLQQSGAELVRPGTSVKLSCIASGFNIKDDYMHWVKQRPEQGLEWIGWIDPENGDTEYASKFQGKATITADTSANTAYLQFSSLTSEDTAVYYCLYGNFYYFDYWGQGTTLTVSS VL: QIVLTQSPAIMSASPGEKVTMTCSASSSINYMHWYQQKPGTSPKRWIYDTSKLASGVPARFSGSGSGTSYSLTISSMEAEDAATYYCHQRSFSPLTFGAGTKLELK', 1.0),
  ('antibody 3882 (antibody, human IgG4 S228P, kappa, V domains shown) VH: QVQLVQSGAEVKKPGSSVKVSCKASGGTFSDDYMHWVRQAPGQGLEWMGWIDPENGDTEYASKFQGRVTITADESTSTAYMELSSLRSEDTAVYYCLYGNFYYFDYWGQGTTVTVSS VL: EIVLTQSPATLSLSPGERATLSCSASSSINYMHWYQQKPGQAPKRWIYDTSKLASGVPARFSGSGSGTDFTLTISSLEPEDFAVYYCHQRSFSPLTFGQGTKLEIKR', 1.0),
  ('antibody 1267 (Kg3g) (antibody, human IgG1, kappa, V domains shown, Heavy chain is VH + human CH1 + IgG1 Fc) VH: QVQLVQSGAEVKKPGASVKVSCKVSGYTLTSILMHWVRQAPGKGLEWMGGFDPQDGETVYAQKFQGRVTMTEDTSTDTAYMELSSLRSEDTAVYYCATDPHRTWWRYFDWLYPRGMDVWGQGTTVTVSS VL: EIVLTQSPGTLSLSPGERATLSCRASQTVGKNYLAWYQQKPGQAPRLLIYEASVRALGIPDRFSGSGSGTDFTLTISRLEPEDFAVYYCQQFRSYPYTFGQGTKVEIKR', 1.0),
  ('antibody 3871 (antibody, V domains shown, Humanized from 3807: VH is 3807-VH1 and VL is 3807-VL3) VH: QVQLVQSGAEVKKPGSSVKVSCKASGFNIKDDYMHWVRQAPGQGLEWMGWIDPENGDTEYASKFQGRVTITADESTSTAYMELSSLRSEDTAVYYCLYGNFYYFDYWGQGTTVTVSS VL: EIVLTQSPATLSLSPGERATLSCSASSSINYMHWYQQKPGQAPKRWIYDTSKLASGVPARFSGSGSGTDFTLTISSLEPEDFAVYYCHQRSFSPLTFGQGTKLEIK', 0.0),
  ('antibody 3875 (antibody, V domains shown, Humanized from 3807: VH is 3807-VH5 and VL is 3807-VL3) VH: QVQLVQSGAEVKKPGSSVKVSCKASGFNIKDDYMHWVRQAPGQGLEWMGWIDPENGDTEYASKFQGRVTITADTSANTAYMELSSLRSEDTAVYYCLYGNFYYFDYWGQGTTVTVSS VL: EIVLTQSPATLSLSPGERATLSCSASSSINYMHWYQQKPGQAPKRWIYDTSKLASGVPARFSGSGSGTDFTLTISSLEPEDFAVYYCHQRSFSPLTFGQGTKLEIK', 1.0);
